- assay.system: recombinant DYRK1A kinase (Homo sapiens (Human), UniProt Q13627)
- measurement.description: DYRK1A kinase assay (Ser/Thr 18 peptide Z-lyte FRET assay)
- test.settings: DYRK1A 0.25 μg/mL, ATP 15 μM, Ser/Thr peptide 18 4 μM; one hour at room temperature; 11-point dose-response, duplicate
pIC50: −log10 of the molar value.
measurement.kind: pIC50

Record excerpt, results attached:
INSERT INTO assay_data (chemical_structure, test_value) VALUES
  ('CNc1nc(N[C@@H]2CCN(C3COC3)CC2(F)F)nn2ccc(-c3ccc4ncn(CCF)c4n3)c12', 9.05),
  ('CNc1nc(N[C@@H]2CN(C3COC3)CC2(F)F)nn2ccc(-c3ccc4nnn(CC(F)F)c4n3)c12', 8.89);

P = CNc1nc(N[C@@H]2CN(C)CC2(F)F)nn2ccc(-c3ccc4nc(C)n(CC(F)F)c4n3)c12
Q = CNc1nc(N[C@H]2CC[C@](C)(O)CC2)nn2ccc(-c3ccc4nc(C)n(CC(F)F)c4n3)c12
In: Consider entries P and Q . Which has the numerically lower pIC50? Label of pick, please.
Out: Q
